The measured values listed here are drawn from patent US20260317437.

# subject.of.test: GCGR extracellular domain (human, UniProt P47871)
# Sequence (P47871 26-477): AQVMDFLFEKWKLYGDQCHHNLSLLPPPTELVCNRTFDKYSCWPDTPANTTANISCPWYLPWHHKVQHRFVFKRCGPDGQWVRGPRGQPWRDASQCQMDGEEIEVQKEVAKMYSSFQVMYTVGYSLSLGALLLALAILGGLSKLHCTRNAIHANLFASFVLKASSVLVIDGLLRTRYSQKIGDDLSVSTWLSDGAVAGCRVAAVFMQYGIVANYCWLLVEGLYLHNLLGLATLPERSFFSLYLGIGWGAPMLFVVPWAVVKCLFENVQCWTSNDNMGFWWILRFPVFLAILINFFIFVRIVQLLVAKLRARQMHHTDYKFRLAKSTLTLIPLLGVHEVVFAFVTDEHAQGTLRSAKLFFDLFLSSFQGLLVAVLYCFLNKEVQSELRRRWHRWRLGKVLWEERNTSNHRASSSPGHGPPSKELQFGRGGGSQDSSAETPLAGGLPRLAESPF
# test.summary: SPR
Quick list: Kd per entry.
# output: bare number, implied unit nM

Consider the reported Kd for these binders:
VH W100aA (antibody, V domains shown) VH: EVQLVESGGGLVQPGGSLRLSCAASGFNIYYNYIHWVRQAPGKGLEWVAEFSPYSGSTYYADSVKGRFTISADTSKNTAYLQMNSLRAEDTAVYYCARSAAIVDAYDYFKGFDYWGQGTLVTVSS VL: DIQMTQSPSSLSASVGDRVTITCRASQSVSSAVAWYQQKPGKAPKLLIYSASSLYSGVPSRFSGSRSGTDFTLTISSLQPEDFATYYCQQYGSYLYTFGQGTKVEIK :: 16.3
VH Y30S (antibody, V domains shown) VH: EVQLVESGGGLVQPGGSLRLSCAASGFNISYNYIHWVRQAPGKGLEWVAEFSPYSGSTYYADSVKGRFTISADTSKNTAYLQMNSLRAEDTAVYYCARSAAIVDWYDYFKGFDYWGQGTLVTVSS VL: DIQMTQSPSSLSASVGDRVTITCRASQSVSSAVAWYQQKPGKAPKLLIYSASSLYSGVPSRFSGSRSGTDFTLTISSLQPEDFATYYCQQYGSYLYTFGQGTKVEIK :: 261

Attention now turns to another entry.
What value of measured Kd is listed for VL Y94K (antibody, V domains shown) VH: EVQLVESGGGLVQPGGSLRLSCAASGFNIYYNYIHWVRQAPGKGLEWVAEFSPYSGSTYYADSVKGRFTISADTSKNTAYLQMNSLRAEDTAVYYCARSAAIVDWYDYFKGFDYWGQGTLVTVSS VL: DIQMTQSPSSLSASVGDRVTITCRASQSVSSAVAWYQQKPGKAPKLLIYSASSLYSGVPSRFSGSRSGTDFTLTISSLQPEDFATYYCQQYGSKLYTFGQGTKVEIK ? 1.6
